Could you please report measured pIC50 for the items listed next?
- studyTarget: human 20S proteasome (chymotrypsin-like activity, with PA28 activator) (Homo sapiens, UniProt P28074)
- Sequence (P28074 60-263): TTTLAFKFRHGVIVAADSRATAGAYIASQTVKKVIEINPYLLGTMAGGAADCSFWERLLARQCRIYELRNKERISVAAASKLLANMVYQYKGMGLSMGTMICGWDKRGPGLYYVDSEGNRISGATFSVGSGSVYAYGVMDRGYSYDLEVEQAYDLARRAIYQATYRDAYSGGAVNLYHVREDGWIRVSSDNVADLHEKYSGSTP
- Sequence (P25786 whole entry partner): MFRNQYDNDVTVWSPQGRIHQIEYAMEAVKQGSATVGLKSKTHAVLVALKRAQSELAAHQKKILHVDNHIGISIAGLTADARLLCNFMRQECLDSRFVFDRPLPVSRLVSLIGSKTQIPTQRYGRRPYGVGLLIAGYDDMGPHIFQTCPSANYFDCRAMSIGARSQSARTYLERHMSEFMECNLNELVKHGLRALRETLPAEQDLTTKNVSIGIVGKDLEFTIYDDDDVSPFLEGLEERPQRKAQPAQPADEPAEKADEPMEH
pIC50: −log10 of the molar value.

**Q:** Answer with reported pIC50 of O=c1oc(/C=C/c2ccc(OC(F)(F)F)cc2)ns1
**A:** < 4.00

**Q:** Answer with reported pIC50 of O=c1oc(/C=C/c2ccccc2)ns1 [compound 17, (E)-5-Styryl-1,3,4-oxathiazol-2-one]
**A:** < 4.00

**Q:** Answer with reported pIC50 of O=Cc1ccc(OCc2nsc(=O)o2)cc1
**A:** < 4.00

###

- studyTarget: human 20S proteasome (chymotrypsin-like activity, with PA28 activator) (Homo sapiens)
readoutType: IC50

**Q:** Answer with reported IC50 of CCc1ccccc1/C=C/c1nsc(=O)o1
**A:** > 100 µM

**Q:** Answer with reported IC50 of CCOC(=O)c1ccccc1/C=C/c1nsc(=O)o1
**A:** > 100 µM

**Q:** Answer with reported IC50 of Cc1ccccc1/C=C/c1nsc(=O)o1
**A:** > 100 µM

###

Could you please report measured remaining at 24 h, 50 µM for the items listed next?
- measurementNotes: physchem
- runParameters: ch3cn+pbs (1+1), pH 7.4
All answers are understood in %, so give the number only.

**Q:** Answer with reported remaining at 24 h, 50 µM of CCOC(=O)c1ccccc1/C=C/c1nsc(=O)o1
**A:** 97.7

**Q:** Answer with reported remaining at 24 h, 50 µM of CCc1cccc(/C=C/c2nsc(=O)o2)c1
**A:** 96.4

**Q:** Answer with reported remaining at 24 h, 50 µM of O=c1oc(/C=C/c2ccc(OC(F)(F)F)cc2)ns1
**A:** 94.8

**Q:** Answer with reported remaining at 24 h, 50 µM of CCOC(=O)c1cccc(/C=C/c2nsc(=O)o2)c1
**A:** 96

**Q:** Answer with reported remaining at 24 h, 50 µM of O=c1oc(/C=C/c2cc(Cl)ccc2Cl)ns1
**A:** 98.5

**Q:** Answer with reported remaining at 24 h, 50 µM of Cc1ccccc1/C=C/c1nsc(=O)o1
**A:** 94
